# Measurement Notes: chemical genetic growth profiling, strain panel (AID 1159580);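 also: tested at 20 µM; growth read once vehicle control cultures reached saturation at 30 °C; lower values mean less growth of the strain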
# Measurement Setup: S. cerevisiae deletion strains, growth OD, locus YGL240W, strain doc1
Out of some 5,500 compounds screened, about 2,000 (36%) were called active. Roughly 18% stayed inconclusive and do not appear here. Rule as the data show it: active = normalized growth mostly below about 0.91 (no sharp cut-off); inconclusive = no clear call, values can overlap the other calls; inactive = mostly above about 0.92. This is one part of the list.
Select the matching outcome among yes for active, no for inactive

Field: example entries. Status: answers known.
- Compound: "CN(C)CCCN1c2ccccc2CCc2ccccc21"
  Classification: "no"
- Compound: "CN(C)CCCN1c2ccccc2Sc2ccccc21"
  Classification: "no"
- Compound: "CO[C@H]1CC(O[C@@H]2/C(C)=C/C[C@@H]3C[C@@H](C[C@]4(CC[C@H](C)[C@@H](C5CCCCC5)O4)O3)OC(=O)[C@@H]3C=C(C)/C(=N\\O)[C@H]4OC/C(=C\\C=C\\[C@@H]2C)[C@]43O)O[C@@H](C)C1O (stereo partly specified)"
  Classification: "no"
- Compound: "CCCSc1ccc2nc(NC(=O)OC)[nH]c2c1"
  Classification: "no"

Q: What is the recorded call for this compound in the test? CCN(CC)CCOC(=O)C1(C2CCCCC2)CCCCC1
A: no

Q: What is the recorded call for this compound in the test? C[n+]1ccccc1/C=N/O
A: no

Q: What is the recorded call for this compound in the test? O=P1(NCCCl)OCCCN1CCCl (stereo unspecified)
A: no

Q: What is the recorded call for this compound in the test? CCN(CC)CCOCCOC(=O)C1(c2ccccc2)CCCC1
A: no

Q: What is the recorded call for this compound in the test? COc1ccc([C@@H]2CC(=O)c3c(O)cc(O[C@@H]4O[C@H](CO[C@H]5O[C@@H](C)[C@H](O)[C@@H](O)[C@H]5O)[C@@H](O)[C@H](O)[C@H]4O)cc3O2)cc1O
A: no

Q: What is the recorded call for this compound in the test? CCCc1cc(=O)[nH]c(=S)[nH]1
A: no

Q: What is the recorded call for this compound in the test? CN1CCN(C(=O)OC2c3nccnc3C(=O)N2c2ccc(Cl)cn2)CC1 (stereo unspecified)
A: no

Q: What is the recorded call for this compound in the test? CC12CCC(=O)C=C1CCC1C2[C@@H](O)CC2(C)C1CC[C@]2(O)C(=O)COP(=O)(O)O (stereo partly specified)
A: no

Q: What is the recorded call for this compound in the test? CN(C)CCCN1c2ccccc2CCc2ccc(Cl)cc21
A: no

Q: What is the recorded call for this compound in the test? CC1=CC(=O)c2ccccc2C1=O
A: yes

Q: What is the recorded call for this compound in the test? CC(C)=CCc1c2c(c3occ(-c4ccc(O)c(O)c4)c(=O)c3c1O)C=CC(C)(C)O2
A: no

Q: What is the recorded call for this compound in the test? CN[C@@H]1[C@H](O)[C@H](NC)[C@H]2O[C@@]3(O)C(=O)C[C@@H](C)O[C@H]3O[C@@H]2[C@H]1O
A: no

Q: What is the recorded call for this compound in the test? Cc1nc(N)cc(C[n+]2csc(CCO)c2C)n1
A: no

Q: What is the recorded call for this compound in the test? CC12CCC3C(CC3(C)C)C(C)(CCC1=O)O2 (stereo unspecified)
A: no

Q: What is the recorded call for this compound in the test? CC1(C)CC2C1CC[C@]1(C)CCC3C(C(=O)O)CC(=O)O[C@@]32C1 (stereo partly specified)
A: no

Q: What is the recorded call for this compound in the test? CC1(C)CC2C1CC[C@]1(CBr)CCC3C(CC(=O)O)C(=O)O[C@@]32C1 (stereo partly specified)
A: no

Q: What is the recorded call for this compound in the test? CCC(C)C(=O)OC1[C@@H]2CC3=C4CC(=O)O[C@@H](c5ccoc5)[C@]4(C)CCC3[C@@](C)(C2=O)[C@@H](CC(=O)OC)C1(C)C (stereo partly specified)
A: no
